Molecular target: Perilipin-5 (Homo sapiens) + 1-acylglycerol-3-phosphate O-acyltransferase ABHD5 (Homo sapiens) (UniProt Q00G26+Q8WTS1)
Sequence (Q00G26 whole entry, looked up): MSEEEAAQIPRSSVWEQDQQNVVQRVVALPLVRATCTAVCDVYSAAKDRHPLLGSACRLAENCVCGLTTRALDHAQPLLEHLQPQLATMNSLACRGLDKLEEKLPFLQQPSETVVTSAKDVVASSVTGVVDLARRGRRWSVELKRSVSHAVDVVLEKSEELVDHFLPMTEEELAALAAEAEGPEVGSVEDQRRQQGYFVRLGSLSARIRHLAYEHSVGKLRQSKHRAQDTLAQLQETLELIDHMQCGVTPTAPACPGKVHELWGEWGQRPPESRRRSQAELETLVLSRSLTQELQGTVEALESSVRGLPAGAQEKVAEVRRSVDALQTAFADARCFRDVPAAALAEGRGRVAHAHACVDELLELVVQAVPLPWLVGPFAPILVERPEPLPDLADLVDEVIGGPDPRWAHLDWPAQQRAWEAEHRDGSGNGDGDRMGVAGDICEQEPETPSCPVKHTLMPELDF
Sequence (Q8WTS1 whole entry, looked up): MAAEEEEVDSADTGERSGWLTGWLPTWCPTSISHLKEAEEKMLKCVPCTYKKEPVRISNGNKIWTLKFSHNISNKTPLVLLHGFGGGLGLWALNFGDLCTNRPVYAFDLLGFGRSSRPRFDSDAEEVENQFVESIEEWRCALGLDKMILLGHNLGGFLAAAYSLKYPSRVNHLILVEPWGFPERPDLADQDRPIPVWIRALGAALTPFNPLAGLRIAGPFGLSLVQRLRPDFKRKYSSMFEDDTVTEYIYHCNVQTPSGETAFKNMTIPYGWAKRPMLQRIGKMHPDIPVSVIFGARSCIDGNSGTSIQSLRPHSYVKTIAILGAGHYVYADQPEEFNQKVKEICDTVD
Test: ABHD5-PLIN5 binding inhibitors, late-stage follow-up, biochemical, luminescence, dose response, round 2 (AID 652124)
Details: biochemical ABHD5-PLIN5 interaction
Calls of active or inactive are those of the source. How the calls were made is not given here.
Give one outcome, nothing more. List: T for active, F for inactive

Q: GET /call?item= O=C(Nc1ccc2ccccc2c1)c1nc(S(=O)(=O)Cc2ccccc2)ncc1Cl returns the recorded outcome of this test.
Ans: T

Q: GET /call?item= Cc1ccc2c(CC(=O)N3CCN(S(=O)(=O)c4ccc5c(c4)OCCCO5)CC3)coc2c1C returns the recorded outcome of this test.
Ans: T

Q: GET /call?item= O=C(CCc1c[nH]c2ccccc12)N1CCN(S(=O)(=O)c2ccc3c(c2)OCCO3)CC1 returns the recorded outcome of this test.
Ans: F

Q: GET /call?item= COc1ccc(CC(=O)N2CCCN(S(=O)(=O)c3ccc(C)cc3)CC2)cc1OC returns the recorded outcome of this test.
Ans: F

Hey, just so you know, these numbers are from PubChem BioAssay AID652124.
